Target sequence: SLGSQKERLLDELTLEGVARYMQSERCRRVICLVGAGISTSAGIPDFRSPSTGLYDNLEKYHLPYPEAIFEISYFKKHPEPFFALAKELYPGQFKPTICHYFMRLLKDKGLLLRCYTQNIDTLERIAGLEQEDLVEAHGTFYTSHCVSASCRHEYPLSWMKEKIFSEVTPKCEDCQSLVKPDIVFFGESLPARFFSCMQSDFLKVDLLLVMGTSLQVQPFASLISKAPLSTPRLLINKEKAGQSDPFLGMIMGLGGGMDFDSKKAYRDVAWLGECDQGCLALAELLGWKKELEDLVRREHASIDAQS
observable: pIC50
One number for each entry, as −log10 of the molar value.

> print(dat)
                               query.smiles  observable  numeric.value
1  COc1c(Br)cc(C(=O)NC(=S)Nc2ccc(NC(=O)CCCCN(C)C)cc2)cc1Br.Cl       pIC50           4.80
2  COc1c(F)cc(C(=O)NC(=S)Nc2ccc(NC(=O)CCCCN(C)C)cc2)cc1F.Cl       pIC50           4.74
3  CCCCOc1ccc(C(=O)NC(=S)Nc2ccc(NC(=O)CCCCN(C)C)cc2)cc1.Cl       pIC50           5.14

For the next question, use this molecule.
Q) Please look at this molecule and report its pIC50: CCOc1c(Cl)cc(C(=O)NC(=S)Nc2ccc(NC(=O)CCCCN(C)C)cc2)cc1Cl.Cl
A) 4.89

---

# study_target: SIRT1 (Homo sapiens, UniProt Q96EB6)
# Construct: purchased Enzo Life Sciences AK555
# Sequence (Q96EB6 whole entry): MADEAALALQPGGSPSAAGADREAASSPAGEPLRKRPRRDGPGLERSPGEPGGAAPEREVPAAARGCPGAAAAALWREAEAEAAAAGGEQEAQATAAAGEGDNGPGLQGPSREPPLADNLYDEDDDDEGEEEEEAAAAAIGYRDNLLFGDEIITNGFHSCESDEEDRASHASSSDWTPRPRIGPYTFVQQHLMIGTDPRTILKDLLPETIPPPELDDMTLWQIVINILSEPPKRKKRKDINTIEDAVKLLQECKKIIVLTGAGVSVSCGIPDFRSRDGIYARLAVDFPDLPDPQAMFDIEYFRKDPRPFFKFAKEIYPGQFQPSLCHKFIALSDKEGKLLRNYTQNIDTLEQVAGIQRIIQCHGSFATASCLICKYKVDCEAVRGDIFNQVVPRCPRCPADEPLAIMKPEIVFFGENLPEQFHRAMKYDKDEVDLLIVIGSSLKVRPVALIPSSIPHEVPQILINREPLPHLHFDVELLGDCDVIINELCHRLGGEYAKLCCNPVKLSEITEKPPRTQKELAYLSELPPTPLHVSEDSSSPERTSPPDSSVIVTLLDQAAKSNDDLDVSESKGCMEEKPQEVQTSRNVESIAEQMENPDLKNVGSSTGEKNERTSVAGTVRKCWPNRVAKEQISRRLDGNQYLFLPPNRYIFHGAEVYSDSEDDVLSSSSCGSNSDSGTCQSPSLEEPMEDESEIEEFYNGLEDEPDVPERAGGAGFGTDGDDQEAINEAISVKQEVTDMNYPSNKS
# assay_protocol: Fluor de Lys fluorescence-based SIRT1 inhibition assay
# Format: biochemical
# run_parameters: 60 μM concentration of inhibitor; ± SE, n = 2
Kindly return Condition met if reported inhibition at 60 µM is no lower than 80%; return Condition not met if it is lower.

Field: example entries. Status: answers known.
> print(dat)
                               query.smiles              label
1  COc1c(Br)cc(C(=O)NC(=S)Nc2ccc(NC(=O)CCCCN(C)C)cc2)cc1Br.Cl  Condition not met
2  CCOc1c(F)cc(C(=O)NC(=S)Nc2ccc(NC(=O)CCCCN(C)C)cc2)cc1F.Cl  Condition not met
3  COc1cc(C(=O)NC(=S)Nc2ccc(NC(=O)CCCCN(C)C)cc2)cc(OC)c1OC  Condition not met
4  COc1c(C)cc(C(=O)NC(=S)Nc2ccc(NC(=O)CCCCN(C)C)cc2)cc1C.Cl  Condition not met
5  CCCCOc1c(Cl)cc(C(=O)NC(=S)Nc2ccc(NC(=O)CCCCN(C)C)cc2)cc1Cl.Cl      Condition met

Now look at this entry.
Q) Entry CCCCOc1ccc(C(=O)NC(=S)Nc2ccc(NC(=O)CCCCN(C)C)cc2)cc1.Cl : is its inhibition at 60 µM no less than 80%?
A) Condition met

---

I'd appreciate it if you could supply inhibition at 60 µM values for the items below.
# study_target: SIRT2 (Homo sapiens)
# assay_protocol: Fluor de Lys fluorescence-based SIRT2 inhibition assay (in-house SIRT2)
# Type: biochemical
# Parameters: SIRT2 cDNA (residues 50-356) was expressed; His tag (N, cleaved yes); made in house; host or cells: E. coli BL21(DE3) pLysS
# run_parameters: read-out: SIRT2 % at 60 μM (% inhibition); 60 μM concentration of inhibitor; ± SE, n = 2

Below: 4 compounds and their reported inhibition at 60 µM.
> print(dat)
                               query.smiles  result
1  CCCCOc1ccc(C(=O)NC(=S)Nc2ccc(NC(=O)CCCCN(C)C)cc2)cc1.Cl   88.2%
2  CCOc1c(Cl)cc(C(=O)NC(=S)Nc2ccc(NC(=O)CCCCN(C)C)cc2)cc1Cl.Cl   81.5%
3  COc1c(F)cc(C(=O)NC(=S)Nc2ccc(NC(=O)CCCCN(C)C)cc2)cc1F.Cl   81.2%
4  COc1cc(C(=O)NC(=S)Nc2ccc(NC(=O)CCCCN(C)C)cc2)cc(OC)c1OC   18.1%

Please look at the items below and tell me inhibition at 60 µM for each one, in order.
1. CCOc1c(F)cc(C(=O)NC(=S)Nc2ccc(NC(=O)CCCCN(C)C)cc2)cc1F.Cl
2. CCCCOc1c(Cl)cc(C(=O)NC(=S)Nc2ccc(NC(=O)CCCCN(C)C)cc2)cc1Cl.Cl
3. COc1c(C)cc(C(=O)NC(=S)Nc2ccc(NC(=O)CCCCN(C)C)cc2)cc1C.Cl
4. CCCOc1c(Cl)cc(C(=O)NC(=S)Nc2ccc(NC(=O)CCCCN(C)C)cc2)cc1Cl.Cl

A)
["89.1%", "99.6%", "54.7%", "96.1%"]

Q) Please look at this compound and report its inhibition at 60 µM: COc1c(Br)cc(C(=O)NC(=S)Nc2ccc(NC(=O)CCCCN(C)C)cc2)cc1Br.Cl
A) 82.7%
